Listed next: entries and their corresponding solubility.
EXPERIMENT_NOTES: Compound solubility in water
OBSERVED_PROPERTY: solubility

> print(dat)
                                   compound  observed.property  result.value
1  O=C(NCCCc1ccccc1)n1cnc2ccccc21 [Example 5]         solubility    13.8 µg/mL
2  CN1CCC(c2cccc3c2ncn3C(=O)NCCCc2ccccc2)C1 (stereo not drawn) [Example 267]         solubility      25 µg/mL
3  COc1nc2ccc(N3CCOCC3)cc2n1C(=O)NCCCCc1ccccc1 [Example 133a]         solubility       1 µg/mL
4  CN1CCN(C2CN(c3cccc4c3ncn4C(=O)NCCc3ccccc3)C2)CC1 [Example 349]         solubility      37 µg/mL
5  CN1CCN(C2CN(c3cccc4c3ncn4C(=O)NCCC3CCC(F)(F)C3)C2)CC1 (stereo not drawn) [Example 318]         solubility      40 µg/mL
6  O=C(NCCc1ccccc1)n1cnc2cc(-c3ncccn3)ccc21 [Example 9]         solubility     5.4 µg/mL
7  CN1CCC(c2cccc3c2ncn3C(=O)NCCc2ccccc2)CC1 [Example 12]         solubility    30.5 µg/mL
8  COc1nc2cc(N3CCOCC3)c(F)cc2n1C(=O)NCCOc1ccccc1 [Example 335b]         solubility       7 µg/mL
9  CC(C)C#CCNC(=O)n1cnc2c(N3CCN4CCCC4C3)cccc21 (stereo not drawn) [Example 302]         solubility      22 µg/mL

----------
EXPERIMENT_NOTES: Compound solubility in water
Response field class: string, computed from recorded solubility by ranges low interval (below 9 µg/mL), middle interval (9 µg/mL to below 30 µg/mL), high interval (30 µg/mL or more)

> print(dat)
                                    compound   assigned.class
 1  CN1CCC(Oc2cccc3c2ncn3C(=O)NCCc2ccccc2)CC1 [Example 86]  middle interval
 2  COc1nc2ccc(N3CCOCC3)cc2n1C(=O)NCCCCn1ccc(C(C)(C)C)n1 [Example 188b]  middle interval
 3  CCCCNC(=O)n1cnc2cc(N3CCC(N4CCN(C)CC4)CC3)ccc21 [Example 102b]    high interval
 4  O=C(NCCc1ccccc1)n1cnc2ccc(-c3cccnc3)cc21 [Example 10b]     low interval
 5  O=C(NCc1ccccc1)n1cnc2ccccc21 [Example 17]     low interval
 6  O=C(NC1CCCCC1)n1cnc2c(N3CCN(C4CC4)CC3)cccc21 [Example 148]     low interval
 7  CC(C)CCNC(=O)n1cnc2c(N3CC(N4CCN(C)CC4)C3)cccc21 [Example 205]    high interval
 8  CCOc1nc2ccc(N3CCOCC3)cc2n1C(=O)NCCCc1ccccc1 [Example 189b]     low interval
 9  CC(C)Oc1cccc2c1ncn2C(=O)NCCc1ccccc1 [Example 90]     low interval
10  CCn1c(=O)n(C(=O)NCCc2ccccc2)c2ncccc21 [Example 127]  middle interval
11  CNC1CCN(c2cccc3c2ncn3C(=O)NCCCc2ccccc2)C1 (centres unmarked) [Example 268]  middle interval
12  COc1nc2ccc(N3CCOCC3)cc2n1C(=O)NCCCc1ccccc1 [Example 134a]  middle interval
13  CC(C)CCNC(=O)n1cnc2c(N3[C@@H]4CC[C@H]3COC4)cccc21 [Example 220]     low interval
14  CC(C)CCNC(=O)n1cnc2c(N3CCN(C)CC3)cc(C#N)cc21 [Example 180]  middle interval
15  CN1CC(N2CCN(c3cccc4c3ncn4C(=O)NCCCc3ccccc3)CC2)C1 [Example 251]    high interval
16  CC(C)CCNC(=O)n1cnc2c(N3CCN(CC(F)(F)F)CC3)cccc21 [Example 153]  middle interval
17  CCCCNC(=O)n1c(OC(C)C)nc2c(OC)cccc21 [Example 97a]  middle interval
18  COc1cc2ncn(C(=O)NCC(C)C)c2cc1-c1cncnc1 [Example 79b]  middle interval
19  COc1nc2ccc(N3CCOCC3)cc2n1C(=O)NCCCc1ccc(F)cc1 [Example 221a]     low interval
20  COc1cc2ncn(C(=O)NCCc3ccccc3)c2cc1N1CCOCC1 [Example 38a]  middle interval
21  Cn1c(=O)n(C(=O)NCCCCn2ccc(C(C)(C)C)n2)c2ncccc21 [Example 135b]  middle interval
22  CCCCNC(=O)n1c(OCC)nc2c(OC)cccc21 [Example 94]  middle interval
23  CC(C)CNC(=O)n1cnc2cc(-c3cncnc3)c(C(F)(F)F)cc21 [Example 77a]  middle interval
24  O=C(NCCc1ccccc1)n1cnc2ccncc21 [Example 21]     low interval
25  CN1CCN(c2cccc3c2ncn3C(=O)NCCC2CCC(F)(F)C2)CC1 (centres unmarked) [Example 258]    high interval
26  O=C(NCCOc1ccccc1)n1cnc2ncccc21 [Example 62]  middle interval
27  COc1nc2cc(N3CCOCC3)c(F)cc2n1C(=O)NCC#CC(C)C [Example 321a]     low interval
28  O=C(NCCN1CCOCC1)n1cnc2ccccc21 [Example 41]    high interval
29  CN1CC(N2CCN(c3cccc4c3ncn4C(=O)NCCOc3ccccc3)CC2)C1 [Example 296]    high interval
30  CC(C)C#CCNC(=O)n1cnc2c(N3CCN(CCC(F)(F)F)CC3)cccc21 [Example 310]     low interval
31  CCCCNC(=O)n1cnc2ccc(N3CCC(N4CCOCC4)CC3)cc21 [Example 101a]  middle interval
32  Cn1c(=O)n(C(=O)NCCc2ccccc2)c2ccc(-c3cncnc3)cc21 [Example 32b]     low interval
33  CSc1nc2cc(-c3cccnc3)cnc2n1C(=O)NCC(C)C [Example 125]     low interval
34  CN1CCN(c2cccc3c2ncn3C(=O)NCCC2CCCC2(F)F)CC1 (centres unmarked) [Example 259]  middle interval
35  CCCCNC(=O)n1cnc2c(C3CCN(C)CC3)c(C(F)(F)F)ccc21 [Example 56]  middle interval
36  COc1nc2ccc(C3CCN(C)CC3)cc2n1C(=O)NCCCc1ccccc1 [Example 195b]    high interval
37  CCOc1nc2c(OC)cccc2n1C(=O)NCCC1CC1 [Example 116]  middle interval
